Where do these numbers come from? They come from the nanobody polyreactivity screen of Harvey et al. (2022).

# PROTOCOL SUMMARY: yeast display, Sf9 membrane polyspecificity reagent, FACS + sequencing; frameworks hold sequencing errors
MEASUREMENT NAME: polyreactivity (PSR sort gate)

Solved cases below.
QVQLVESGGGLVQAGGSLSISCAASGITLGHNAMGWYRQAPGKDRELVAAISWSGDRTFYADSVKGRFTISRDNAKNTVYLQMNSLKPEDTAVYYCNAEIGWHNEGRLSTYDYWGQGTQVTVSS low polyreactivity
QVQLVESGGGLVQAGGSLRISCAASGFIFAHNAMGWYRQAPGKERELVAAITSSGGSTYYADSVKGRFTISRDNAKNTVYLQMNSLKPEDTAVYYCAAYWKLGGFRYGYWGQGTQVTVSS high polyreactivity
QVQLVESGGGLVQAGGSLRLSCAASGRIFGYYAMGWYRQAPGKERELVARIRRRGGSTYYADSVKGRFTISRDNAKNTVYLQMNSLKPEDTAVYYCAAVYYPLVGKRYYYWGQGTQVTVSS high polyreactivity
QVQLVESGGGLVQAGGSLRLSCAASGRIFYYYTMAWYRQAPGKERELVAAISWGGVNTDYADSVKGRFTISRDNAKNTVYLQMNSLKPEDTAVYYCAAGRWSVGTYDYWGQGTQVTVSS low polyreactivity

Inquiry: Would you kindly share the measured polyreactivity (PSR sort gate) for QVQLVESGGGIVQAGGSLRLSCAASGGTFPWYTMVWYRQAPGKERELVATIRGRDGSTFYADSVKGRFTISRDNAKNTVYLQMNSLIPEVTAVYYCAAVGRRKDLRWGVYYRFDYWGQGTQVTVSS ?
Reply text: low polyreactivity

Inquiry: Would you kindly share the measured polyreactivity (PSR sort gate) for QVQLVESGGGLVQAGGSLRLICAASGRTFVPNVMGWYRQAPGKERELVAAITSGGSTYYADSVKGRFTISRDNAKNTVYLQMNSLKPEDTAVYYCAKRTSWKYGYWGQGTQVTVSS ?
Reply text: high polyreactivity

Inquiry: Would you kindly share the measured polyreactivity (PSR sort gate) for QVQLQESGGGLVQAGASQRLSCAASGYIFYFQYMGWYRQAPGKEREFVAAISDGANTNYADSVKGRFTISRDNAKNTEYLQMNSLKPEDTAVYYCAVYADENYYYIYWGQGTQVTVSS ?
Reply text: low polyreactivity

Inquiry: Would you kindly share the measured polyreactivity (PSR sort gate) for QVQLVESGGGLVQAGGSLRLSCAASGRTFRGYAMGWYRQAPGKERELVAAISASGGSTYYADSVKGRFTISRDNAKNTVYLQMNSLKPEDTAVYYCAARFWFTKGYDYWGQGTQVTVSS ?
Reply text: high polyreactivity

Inquiry: Would you kindly share the measured polyreactivity (PSR sort gate) for QVQLVESGGGLVQAGGSLRLSCSASGSTFWYYAMGWYRKAPGKERELVAAITRGASTNYADSVKGRFTISRDNAKNTVYLQMISLIPEDTAVYYCAAGPARWKGYYWGQGTQVTVSS ?
Reply text: high polyreactivity
